- Assay protocol: MRT (0 to infinity) in Sprague-Dawley rat at 1 mg/kg,iv measured upto 24 hrs by LC-MS/MS analysis
- Type: ADME, organism-based
- Measurement setup: in vivo
Property label: MRT inf

The molecule listed as Cc1c(C(C#N)c2c(F)cccc2F)nc(SC(C)C)[nH]c1=O (stereo unspecified) shows MRT inf equal to 2.41 h

###

- Assay protocol: Cmax in Sprague-Dawley rat at 10 mg/kg,po measured upto 24 hrs by LC-MS/MS analysis
- Assay type: ADME, organism-based
- Design: dose 10 mg/kg, time < 24 hrs, route po
- Measurement setup: in vivo
Property label: Cmax (ng/mL)
Supply the numeric figure in ng/mL, leaving out any unit text.

Consider Cc1c(C(C#N)c2c(F)cccc2F)nc(SC(C)C)[nH]c1=O (stereo unspecified) . Its measured Cmax is 15300

The measurements presented in this section are drawn from ChEMBL document CHEMBL5137044.
